# assayExplanation: Microsomal metabolic stability
# Format: in vitro ADME
# experimentalConditions: rat, liver microsomes, NADPH-generating system absent
propertyMeasured: recovery at 10 µM (%)
Answers are plain numbers, in %.

Exercise: Respond only with recovery at 10 µM recorded for c1ccc(N2CCN(c3nc(N4CCCNCC4)nc(N4CCOCC4)n3)CC2)cc1 [5f]
Key: 100

----------
# assayExplanation: Microsomal metabolic stability
# Type: in vitro ADME
# experimentalConditions: rat, rat liver microsomes, NADPH-generating system absent
propertyMeasured: half-life at 10 μM (h)
Give bare numbers, in h.

Exercise: Supply half-life at 10 μM value. Item: c1ccc(N2CCN(c3nc(N4CCCNCC4)nc(N4CCOCC4)n3)CC2)cc1 [5f]
Key: 6.79

----------
# assayExplanation: pH-dependent aqueous solubility (UV spectrophotometry)
# Assay type: physicochemical
# experimentalConditions: aqueous buffer, thermodynamic from solid, phosphate buffer pH 7.4 (plasma), 37 °C, read-out: Solubility pH 7.4
# Procedure: A stock solution of the target compound was prepared by dissolving 1 mg in methanol, and the wavelength of greatest absorption of each compound was obtained by scanning between wavelengths from 200 nm to 500 nm. Six dilutions were prepared from the stock solution and the absorbance reading in the UV spectrophotometer (SpectraMax M5, Molecular Devices, USA). […]
propertyMeasured: solubility at 4 h
Put down the number, then write its unit next to it.

compound: c1ccc(N2CCN(c3nc(N4CCNCC4)nc(N4CCOCC4)n3)CC2)cc1 [5c]
propertyMeasured: solubility at 4 h
obsValue: 59.1 µM
--
compound: OCCN1CCN(c2nc(N3CCOCC3)nc(N3CCN(c4ccccc4)CC3)n2)CC1 [5e]
propertyMeasured: solubility at 4 h
obsValue: 49.1 µM
--
compound: CN1CCN(c2nc(N3CCOCC3)nc(N3CCN(c4ccccc4)CC3)n2)CC1 [5d]
propertyMeasured: solubility at 4 h
obsValue: 50.9 µM
--
compound: c1ccc(N2CCN(c3nc(N4CCCNCC4)nc(N4CCOCC4)n3)CC2)cc1 [5f]
propertyMeasured: solubility at 4 h
obsValue: 42.4 µM
--
compound: c1ccc(N2CCN(c3nc(N4CCOCC4)nc(N4CCOCC4)n3)CC2)cc1 [compound 9, reference compound]
propertyMeasured: solubility at 4 h
obsValue: 6.03 µM
--
compound: c1ccc(N2CCN(c3nc(N4CCOCC4)nc(N4CCSCC4)n3)CC2)cc1 [5a]
propertyMeasured: solubility at 4 h
obsValue: 2.88 µM

Please examine the following record next.
Exercise: # return recorded solubility at 4 h for entry c1ccc(N2CCN(c3nc(N4CCCCC4)nc(N4CCOCC4)n3)CC2)cc1 [5b]
Key: 0.51 µM

----------
# assayExplanation: PBMC viability assay (72 h MTT)
# Assay type: cell-based, human
# Parameters: dose or concentration left out as unconfirmed
# experimentalConditions: human
propertyMeasured: Emax at 72 h

Exercise: Return Emax at 72 h for the following molecule: c1ccc(N2CCN(c3nc(N4CCCNCC4)nc(N4CCOCC4)n3)CC2)cc1 [5f]
Key: 26%

----------
# assayExplanation: pH-dependent aqueous solubility (UV spectrophotometry)
# Type: physicochemical
# experimentalConditions: aqueous buffer, thermodynamic from solid, phosphate buffer pH 5.8 (duodenum), 37 °C, read-out: Solubility pH 5.8
Record form. Attribute: solubility at 4 h. Fill in for each entry.

compound: OCCN1CCN(c2nc(N3CCOCC3)nc(N3CCN(c4ccccc4)CC3)n2)CC1 [5e]
solubility at 4 h: 31.2 µM

Each of the following entries comes with a recorded value; kindly state solubility at 4 h for each.
1. c1ccc(N2CCN(c3nc(N4CCCCC4)nc(N4CCOCC4)n3)CC2)cc1 [5b]
2. c1ccc(N2CCN(c3nc(N4CCOCC4)nc(N4CCSCC4)n3)CC2)cc1 [5a]
3. CN1CCN(c2nc(N3CCOCC3)nc(N3CCN(c4ccccc4)CC3)n2)CC1 [5d]
4. c1ccc(N2CCN(c3nc(N4CCCNCC4)nc(N4CCOCC4)n3)CC2)cc1 [5f]
5. c1ccc(N2CCN(c3nc(N4CCOCC4)nc(N4CCOCC4)n3)CC2)cc1 [compound 9, reference compound]

Key:
1. 2.84 µM
2. 0.52 µM
3. 30.7 µM
4. 39.3 µM
5. 3.92 µM

Exercise: Respond only with solubility at 4 h recorded for c1ccc(N2CCN(c3nc(N4CCNCC4)nc(N4CCOCC4)n3)CC2)cc1 [5c]
Key: 43.4 µM

----------
# assayExplanation: Microsomal metabolic stability
# Type: in vitro ADME
# experimentalConditions: rat, liver microsomes, NADPH-generating system present
propertyMeasured: recovery at 10 µM (%)
Answers are plain numbers, in %.

Exercise: Using known records, supply recovery at 10 µM for c1ccc(N2CCN(c3nc(N4CCCNCC4)nc(N4CCOCC4)n3)CC2)cc1
Key: 101

----------
I'd appreciate it if you could supply Emax values for the items below.
# System: CCRF-CEM
# assayExplanation: MTT cell viability assay
# Type: cell-based, human
# experimentalConditions: Homo sapiens, 72 h MTT, read-out: Emax (maximum effect at maximum concentration used)
Give bare numbers, in %.

Example entries begin here.
compound: O=C1NC(=O)/C(=C/c2ccc3nccc(-c4ccncc4)c3c2)S1 [GSK-1059615, reference compound]
Emax / %: 93

compound: c1ccc(N2CCN(c3nc(N4CCNCC4)nc(N4CCOCC4)n3)CC2)cc1
Emax / %: 94

compound: CN(C)C1CCN(C(=O)c2ccc(NC(=O)Nc3ccc(-c4nc(N5CCOCC5)nc(N5CCOCC5)n4)cc3)cc2)CC1
Emax / %: 90

compound: CN1CCN(c2nc(N3CCOCC3)nc(N3CCN(c4ccccc4)CC3)n2)CC1
Emax / %: 95

Below: the item to evaluate.
Exercise: Provide the reported Emax (system: CCRF-CEM) for c1ccc(N2CCN(c3nc(N4CCCNCC4)nc(N4CCOCC4)n3)CC2)cc1
Key: 93

----------
# System: CCRF-CEM
# assayExplanation: MTT cell viability assay
# Assay type: cell-based, human
# experimentalConditions: Homo sapiens, 72 h MTT, 95% confidence interval in brackets
hey, just use class 1 if measured CC50 is less than 6 µM, otherwise class 0

// known answers, use as guide
compound: c1ccc(N2CCN(c3nc(N4CCNCC4)nc(N4CCOCC4)n3)CC2)cc1
answerLabel: class 0

compound: CN1CCN(c2nc(N3CCOCC3)nc(N3CCN(c4ccccc4)CC3)n2)CC1
answerLabel: class 0

compound: O=C1NC(=O)/C(=C/c2ccc3nccc(-c4ccncc4)c3c2)S1 [GSK-1059615, reference compound]
answerLabel: class 1

Exercise: Please state whether CC50 is below 6 µM for CN(C)C1CCN(C(=O)c2ccc(NC(=O)Nc3ccc(-c4nc(N5CCOCC5)nc(N5CCOCC5)n4)cc3)cc2)CC1
Key: class 1

Exercise: Does this compound meet the criterion CC50 < 6 µM? c1ccc(N2CCN(c3nc(N4CCCNCC4)nc(N4CCOCC4)n3)CC2)cc1
Key: class 0

----------
# assayExplanation: PBMC viability assay (72 h MTT)
# Type: cell-based, human
# experimentalConditions: human, PBMC, 0.03 µM (printed 0.03M), read-out: % cell viability
propertyMeasured: viability at 72 h, 0.03 µM (%)
One number for each entry, in %.

Exercise: Tell me viability at 72 h, 0.03 µM reported for c1ccc(N2CCN(c3nc(N4CCCNCC4)nc(N4CCOCC4)n3)CC2)cc1
Key: 92

----------
# System: MOLT-4
# assayExplanation: MTT cell viability assay
# Type: cell-based, human
# experimentalConditions: Homo sapiens; MOLT-4, 72 h MTT; 95% confidence interval in brackets
propertyMeasured: CC50 (µM)
One number for each entry, in µM.

Example cases with answers are listed next.
molecule: CN(C)C1CCN(C(=O)c2ccc(NC(=O)Nc3ccc(-c4nc(N5CCOCC5)nc(N5CCOCC5)n4)cc3)cc2)CC1
obsValue: 0.02

molecule: c1ccc(N2CCN(c3nc(N4CCCNCC4)nc(N4CCOCC4)n3)CC2)cc1
obsValue: 9.76

Please give CC50, item by item, for the list that follows.
1. CN1CCN(c2nc(N3CCOCC3)nc(N3CCN(c4ccccc4)CC3)n2)CC1
2. c1ccc(N2CCN(c3nc(N4CCNCC4)nc(N4CCOCC4)n3)CC2)cc1

Key:
[64.1, 31.8]

Exercise: Check the records and state CC50 for O=C1NC(=O)/C(=C/c2ccc3nccc(-c4ccncc4)c3c2)S1 [GSK-1059615, reference compound]
Key: 0.63

----------
# assayExplanation: PBMC viability assay (72 h MTT)
# Assay type: cell-based, human
# experimentalConditions: human, peripheral blood mononuclear cells (PBMCs), PBMC, 3 µM (printed 3M), read-out: % cell viability
# Protocol: Donor blood was collected and EDTA (ethylenediamine tetraacetic acid) was added to the sterile laminar flow in a 1:20 ratio. In a 15 mL falcon tube, 4.5 mL of Ficoll gradient was added, and then 9 mL of blood was added over the gradient in a 1:2 ratio. […] After incubation, each well received 20 µL of MTT (5 mg/mL), followed by incubation for 4 h in the CO2 oven and centrifugation for 12 min at 1200× g. […] The absorbance of the plates was measured at 570 nm in the Flex Station equipment.
propertyMeasured: viability at 72 h, 3 µM (%)
Numbers only, in %.

Exercise: Using the record for CN(C)C1CCN(C(=O)c2ccc(NC(=O)Nc3ccc(-c4nc(N5CCOCC5)nc(N5CCOCC5)n4)cc3)cc2)CC1 , state its measured viability at 72 h, 3 µM.
Key: 85
